Molecular target: T1, HLA-A2 complexes expressed by T2 cells (human)
T1 construct: whole, on cells; also called HLA-A2.1 class I molecule
Assay: T2 class I stabilization assay, flow cytometry
quantity name: binding result

Entry ILGVLTSLV (Synthetic peptide (Fmoc), >96% pure) [DLK1 310-318 peptide ILGVLTSLV] — recorded binding result = binds

Entry VLLGAVCGV (Synthetic peptide (Fmoc), >96% pure) [NRP1 869-877 peptide VLLGAVCGV] — recorded binding result = binds

Entry TLSNLSFPV (Synthetic peptide (Fmoc), >96% pure) [NG2 770-778 peptide TLSNLSFPV] — recorded binding result = binds
